Hey, just so you know, these numbers are from PubChem BioAssay (NCI).

- Tested on: HCT-15 colon
- protocol_summary: NCI tumour cell line growth inhibition, 48 h
parameter_measured: TGI

1. Cc1ccc(C2(O)CC(c3ccc([N+](=O)[O-])o3)=NN2C(=O)COc2ccc(Cl)cc2)cc1 (configuration not stated); 17.7 µM

Given the entry `O=C1c2ccccc2-c2nc(-c3cccc([N+](=O)[O-])c3)nnc21` , report its measured TGI.
59.9 µM

Note, next up: `COc1ccc(-c2ccc(/C=N/n3c(C)n[nH]c3=S)o2)c([N+](=O)[O-])c1`
> 100 µM

Note, next up: O=C1CCCCC(=O)OC2(CCCCC2=O)CC1 (configuration not stated)
> 100 µM

Note, next up: `COc1cc2ccc3c4cc(OC)c(OC(C)C)cc4cnc3c2cc1OC`
> 100 µM

Note, next up: CC1CCC(=O)C(C(=O)CC2CC(=O)NC(=O)C2)C1 (configuration not stated)
> 100 µM

Note, next up: `O=C1c2ccc3c4ccccc4n(Cc4ccccc4)c3c2C(=O)N1c1ccccc1`
22.7 µM

Note, next up: `Cc1c(C2=C(Br)C(=O)N(C)C2=O)c(=O)n(C)c(=O)n1C`
45.2 µM

Note, next up: `CN1NC(=Nc2ccccc2)Sc2c1cnn(-c1ccccc1)c2=O`
> 100 µM

Note, next up: `Nc1nc(SN=Nc2ccc(S(N)(=O)=O)cc2)c2[nH]cnc2n1`
> 100 µM

Note, next up: `O=C(Cc1ccccc1)NN1C(=O)/C(=C\c2cccc(O)c2)SC1=Nc1ccccc1`
> 100 µM

Note, next up: `O=c1[nH]cnc2cccc(Cl)c12`
> 100 µM

Note, next up: NP(=O)(OCC1=CC(=O)c2ccccc2C1=O)N(CCBr)CCBr (configuration not stated)
20.1 µM

Note, next up: `CCCSc1ccc2[nH]c(/N=C/c3ccco3)cc2c1`
> 100 µM

Note, next up: `N.N.N.N.[Cl-].[Co+3].[N-]=[N+]=[N-].[N-]=[N+]=[N-]`
> 100 µM

Note, next up: `Cc1ccn2c(=O)cc(-c3ccccc3)nc2c1`
> 100 µM

Note, next up: `COC(=O)C1=C(C(=O)OC)SC2(S1)C1=C(CCCC1)SC(C(=O)OC)=C2C(=O)OC`
18.1 µM

Note, next up: CC1=NN(C(=O)CC(=O)N(C(=O)c2ccccc2Cl)c2ccc(C)cc2)C(=O)C1N=Nc1ccc([N+](=O)[O-])cc1 (configuration not stated)
> 63.5 µM

Note, next up: CN(C)c1ccc(C2SCC(=O)N2NS(=O)(=O)c2cccc(C(=O)O)c2)cc1 (configuration not stated)
> 100 µM

Note, next up: `O=[N+]([O-])c1ccc2c(c1)C(c1ccccc1Cl)=Nc1cn[nH]c1N2`
> 25 µM

Note, next up: `CCCCCCCCCCCCCCCCCC(=O)O[C@H](COC(=O)CCCCCCCCCCC)COC(=O)CCCCCCCCCCCCCCC`
> 100 µM

Note, next up: CCC1(C)N=C(c2cnccn2)NN1c1ccc(Cl)cc1 (configuration not stated)
> 100 µM

* * *

Examples of compounds with documented TGI follow.
- Test system: NCI-H23 lung
- protocol_summary: NCI tumour cell line growth inhibition, 48 h

Field: example entries. Status: answers known.
1. Cc1ccc(-c2cc(N)n(-c3nc4c(c(=O)n(C)c(=O)n4C)n3C)n2)cc1; > 100 µM
2. CN(C)C(=S)/N=c1\ss/c(=N\C(=S)N(C)C)n1-c1ccc(Cl)c(Cl)c1; > 100 µM
3. COc1cc(C2=C(c3cn(C)c4ccccc34)COC2=O)cc(OC)c1OC; 3.04 µM
4. Cc1cc(NS(=O)(=O)c2ccc(Nc3c4ccccc4nc4c(C(=O)NCCN(C)C)cccc34)cc2)no1; > 100 µM
5. CC(=O)O[C@H]1C#C/C=C\C#CC[C@@H]2C(=O)N[C@@H]12; 60.9 µM

Report TGI for `CC1=NN2C(=N)/C(=C/c3ccco3)C(=O)N=C2S1` tested on NCI-H23 lung.
> 100 µM

Note, next up: `N#C/C(=C/N1CCN(C(=O)c2ccco2)C1=S)C(=O)c1ccccc1`
43.5 µM

Note, next up: `CC(C)CNC(=O)O`
> 100 µM

Note, next up: COc1cc2c(cc1O)C1Cc3ccc(OC)c(O)c3C(C2)N1C (configuration not stated)
> 100 µM

* * *

- System: K-562 leukemia
- protocol_summary: NCI tumour cell line growth inhibition, 48 h; in the data active means GI50 below about 0.43 µM; inactive means the rest
Respond only with the outcome that fits, drawn from 1 for active, 0 for inactive

Reference set, count: 3
1) Cc1cc(S(=O)(=O)N/N=C(\Sc2cc(Cl)c(C)cc2S(N)(=O)=O)c2ccc(Cl)cc2)c(Cl)cc1Cl; 0
2) COc1ccc(Nc2c3ccccc3nc3occ(Cl)c23)cc1; 1
3) C1C[OH+]CCNCC[OH+]CC[OH+]CCN1.[Cl-].[Pt+4]; 0

What did this assay record as the result for `O=C(Nc1ccc(-c2ccccc2)cc1)C1CCN(S(=O)(=O)c2ccccc2Cl)CC1` ?
0

Note, next up: `COc1cc2c3c(n(CCCN(C)C)c(=O)c2cc1OC)-c1ccccc1C3=O`
0

Note, next up: `O=C(COc1ccc(/C=C2\CSc3ccccc3C2=O)cc1)Nc1nccs1`
0

Note, next up: `CCC(C)(C)c1ccc(OCCCCCCN2CCNCC2)cc1`
0

Note, next up: `C=C1C(=O)O[C@H]2[C@H]1CC/C(COC(=O)c1ccc(Cl)nc1)=C\CC[C@@]1(C)O[C@@H]21`
0

Note, next up: `O=C(Nc1ccc(Br)cc1)c1ccc(Cl)c(Cl)c1`
0

* * *

- Test system: SR leukemia
- protocol_summary: NCI tumour cell line growth inhibition, 48 h; in the data active means GI50 below about 0.43 µM; inactive means the rest
Respond only with the outcome that fits, drawn from active, inactive

1) COc1ccc(Nc2c3ccccc3nc3occ(Cl)c23)cc1; active
2) COc1ccc2c(O)cc3c(c2c1)[C@H](CCl)CN3C(=O)c1cc2cc(NC(=O)CCN3CCOCC3)ccc2[se]1; active
3) COc1ccc(-c2c[nH]c(=S)n2-c2ccc(OC)cc2)cc1; inactive

What did this assay record as the result for `O=C(Nc1ccc(CO)cc1)c1coc2ccccc2c1=O` ?
inactive

Note, next up: `O=[N+]([O-])c1ccc2c(c1)C(c1ccccc1Cl)=Nc1cn[nH]c1N2`
inactive

Note, next up: `COCCOc1cnc2ccn([C@H](C)c3nnc4c(F)cc(-c5cnn(C)c5)cn34)c(=O)c2c1`
inactive

* * *

Examples of compounds with documented TGI follow.
- Test system: M14 melanoma
- protocol_summary: NCI tumour cell line growth inhibition, 48 h

Field: example entries. Status: answers known.
1. CC(C)C(=O)/C=C/c1ccc(Br)cc1; 32.4 µM
2. CCCCCCCCCCCCCCCCCC(=O)O[C@H](COC(=O)CCCCCCCCCCC)COC(=O)CCCCCCCCCCCCCCC; > 100 µM
3. CC1=COC(C)(C=C(C#N)C#N)CC1 (configuration not stated); > 100 µM

Given the entry `CCCSc1ccc2[nH]c(/N=C/c3ccco3)cc2c1` , report its measured TGI.
> 100 µM

Note, next up: CC1Cn2c(nc3ccccc32)NC1=O (configuration not stated)
> 100 µM

Note, next up: `CN(O)C(=O)c1cccc(Cl)c1`
> 100 µM

Note, next up: `COc1cc(Nc2c3ccccc3nc3ccccc23)ccc1NS(C)(=O)=O`
13.5 µM

Note, next up: `COC(=O)[C@@H]1CCCN1CCN1CCC[C@H]1C(=O)OC`
> 100 µM

* * *

- System: HCT-116 colon
- protocol_summary: NCI tumour cell line growth inhibition, 48 h
parameter_measured: TGI

1) O=C1[C@H]2ON(c3ccccc3)C(c3ccc(Cl)cc3)[C@H]2C(=O)N1c1ccc(Cc2ccc(N3C(=O)[C@@H]4ON(c5ccccc5)C(c5ccc(Cl)cc5)[C@@H]4C3=O)cc2)cc1 (stereo not given in full); > 100 µM

Given the entry O=C(Nc1cc(Cl)ccc1Cl)C(=O)C(c1cnc2ccccc2n1)[N+](=O)[O-] (stereo not given) , report its measured TGI.
> 100 µM

Note, next up: `Oc1cn(-c2ccc(Cl)cc2)nc1-c1n[nH]c(=S)n1C1CCCCC1`
39.8 µM

Note, next up: `O=c1nc2c(c(-c3ccccc3Cl)[nH]1)COC/C2=C\c1ccccc1Cl`
> 100 µM

* * *

Examples of compounds with documented TGI follow.
- System: MDA-MB-231 breast
- protocol_summary: NCI tumour cell line growth inhibition, 48 h
// units = µM; emit number, no label

Report TGI for `COC(=O)C1=C(C(=O)OC)SC2(S1)C1=C(CCCC1)SC(C(=O)OC)=C2C(=O)OC` tested on MDA-MB-231 breast.
29.3

Note, next up: `Nc1cccc(Nc2nc3ccccc3nc2NS(=O)(=O)c2ccccc2)c1`
36

Note, next up: `COc1ccc2c(O)cc3c(c2c1)[C@H](CCl)CN3C(=O)c1cc2cc(NC(=O)CCN3CCOCC3)ccc2[se]1`
0.105
